Below: a set of entries, each annotated with reported EC50.
Target: human TGR5 (Homo sapiens)
Construct: expressed in transfected cells; host or cells: HEK293
Assay: Cell-based TGR5 assay (cAMP generation, HTRF)
Settings: HEK293 cells stably transfected with human TGR5; cAMP by HTRF; 30 minutes at 37° C.; read-out: pEC50 Human TGR5 (converted)

Worked examples, 5 molecules total:
NC(=O)CCN(C[C@H](O)[C@@H](O)[C@H](O)[C@H](O)CO)C(=O)CCCCc1cc(Cl)c(COC2(c3cnccc3-c3ccccc3OC3CC3)CC2)cc1Cl = < 100 nM
Cc1ccc(SCCCN(CCOCCO)C(=O)[C@@H](O)[C@@H](O)[C@H](O)[C@@H](O)CO)cc1CNC1(c2cnccc2-c2ccccc2OC2CC2)CC1 = 126 to 1000 nM
CN(CC(=O)O)CC(=O)N(CCCCc1cc(Cl)c(CNC2(c3cnccc3-c3ccccc3OC3CC3)CC2)cc1Cl)C[C@H](O)[C@@H](O)[C@H](O)[C@H](O)CO = 1260 to 10000 nM
C[C@H](CCCCC(=O)N(C)C[C@H](O)[C@@H](O)[C@H](O)[C@H](O)CO)c1ccc(Cl)c(CNC2(c3cnccc3-c3ccccc3OC3CC3)CC2)c1 (single isomer, unassigned) = < 100 nM
CCOC(=O)NCCN(CCCSc1ccc(Cl)c(CNC2(c3cnccc3-c3ccccc3OC3CC3)CC2)c1)C(=O)[C@@H](O)[C@@H](O)[C@H](O)[C@@H](O)CO = 126 to 1000 nM

For the molecule O=C(NCCCC1(c2ccc(Cl)c(CNC3(c4cnccc4-c4ccccc4OC4CC4)CC3)c2)CC1)[C@@H](O)[C@@H](O)[C@H](O)[C@@H](O)CO , give its measured EC50 value. < 100 nM

# return recorded EC50 for entry C[C@H](CCCC(=O)N(C)C[C@H](O)[C@@H](O)[C@H](O)[C@H](O)CO)c1ccc(Cl)c(CNC2(c3cnccc3-c3ccccc3OC3CC3)CC2)c1 (single isomer, unassigned) < 100 nM

Please look at this molecule and report its EC50: O=C([C@H](O)[C@@H](O)[C@H](O)[C@H](O)CO)N(CCCCCCO)CCCCc1cc(Cl)c(COC2(c3cnccc3-c3ccccc3OC3CC3)CC2)cc1Cl < 100 nM

Answer with the recorded EC50 of CN(C[C@H](O)[C@@H](O)[C@H](O)[C@H](O)CO)S(=O)(=O)c1ccc(Cl)c(COC2(c3cnccc3-c3ccccc3OC3CC3)CC2)c1 only. < 100 nM

Output EC50 of Cc1cc(COC2(c3cnccc3-c3ccccc3OC3CC3)CC2)c(Cl)cc1CCCCNC(=O)NC[C@@H]1O[C@H](C(=O)O)[C@@H](O)[C@H](O)[C@H]1O < 100 nM

====

Property: EC50; scope: individual compounds
Target: human TGR5 (Homo sapiens, UniProt Q8TDU6)
Construct: expressed in transfected cells; host or cells: HEK293
Sequence (Q8TDU6 1-330): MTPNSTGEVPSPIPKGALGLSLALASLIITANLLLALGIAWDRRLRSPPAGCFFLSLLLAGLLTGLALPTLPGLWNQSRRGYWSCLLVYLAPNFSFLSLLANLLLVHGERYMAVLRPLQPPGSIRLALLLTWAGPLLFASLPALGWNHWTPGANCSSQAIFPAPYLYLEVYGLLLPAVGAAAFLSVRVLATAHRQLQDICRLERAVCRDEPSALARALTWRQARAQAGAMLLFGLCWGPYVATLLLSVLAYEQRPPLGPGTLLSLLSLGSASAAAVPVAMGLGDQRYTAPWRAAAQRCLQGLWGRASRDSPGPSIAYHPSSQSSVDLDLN
Test: Cell-based TGR5 assay (cAMP generation, HTRF)
Conditions: HEK293 cells stably transfected with human TGR5; cAMP by HTRF; 30 minutes at 37° C.; read-out: pEC50 Human TGR5 (converted)

Example cases with answers are listed next.
O=C([C@@H](O)[C@@H](O)[C@H](O)[C@@H](O)CO)N(CCCCSc1ccc(Cl)c(COC2(c3cnccc3-c3ccccc3OC3CC3)CC2)c1)C1CCS(=O)(=O)CC1 = 126 to 1000 nM
O=C(NC[C@H](O)[C@@H](O)[C@H](O)[C@H](O)CO)NC1CCC(CCNS(=O)(=O)c2ccc(Cl)c(COC3(c4cnccc4-c4ccccc4OC4CC4)CC3)c2)CC1 (some centres unmarked) = < 100 nM
COCCC(=O)N(CCCCc1cc(Cl)c(COC2(c3cnccc3-c3ccccc3OC3CC3)CC2)cc1Cl)C[C@H](O)[C@@H](O)[C@H](O)[C@H](O)CO = < 100 nM
O=C(NC[C@H](O)[C@@H](O)[C@H](O)[C@H](O)CO)[C@H]1CC[C@H](NS(=O)(=O)c2ccc(Cl)c(COC3(c4cnccc4-c4ccccc4OC4CC4)CC3)c2)CC1 = < 100 nM
CCNC(=O)CCN(C[C@H](O)[C@@H](O)[C@H](O)[C@H](O)CO)C(=O)CCCSc1ccc(Cl)c(COC2(c3cnccc3-c3ccccc3OC3CC3)CC2)c1 = 126 to 1000 nM

Please report the measured EC50 for O=C(NCCCC(CO)c1ccc(Cl)c(CNC2(c3cnccc3-c3ccccc3OC3CC3)CC2)c1)NC[C@H](O)[C@@H](O)[C@H](O)[C@H](O)CO (some centres unmarked) 126 to 1000 nM

Consider the compound Cc1cc(COC2(c3cnccc3-c3ccccc3OC3CC3)CC2)c(Cl)cc1CCCCNC(=O)N[C@@H](CCCNC(=N)N)C(=O)O and give its recorded EC50. < 100 nM

====

Biological target: human TGR5 (Homo sapiens, UniProt Q8TDU6)
Construct: expressed in transfected cells; host or cells: HEK293
Assay: Cell-based TGR5 assay (cAMP generation, HTRF)
Conditions: HEK293 cells stably transfected with human TGR5; cAMP by HTRF; 30 minutes at 37° C.; read-out: pEC50 Human TGR5 (converted)
Each entry below carries its recorded EC50.

CS(=O)(=O)CCN(CCCCSc1ccc(Cl)c(CNC2(c3cnccc3-c3ccccc3OC3CC3)CC2)c1)C(=O)[C@@H](O)[C@@H](O)[C@H](O)[C@@H](O)CO = < 100 nM
COc1cc(C)c(CNC2(c3cnccc3-c3ccccc3OC3CC3)CC2)cc1C = 126 to 1000 nM

Dear colleague, please send me the reported EC50 for COCCNC(=O)N(CCCCc1cc(Cl)c(COC2(c3cnccc3-c3ccccc3OC3CC3)CC2)cc1Cl)C[C@H](O)[C@@H](O)[C@H](O)[C@H](O)CO when you can. 126 to 1000 nM

Give me measured EC50, please, for this molecule: O=C(NCCCCC[S+]([O-])c1ccc(Cl)c(COC2(c3cnccc3-c3ccccc3OC3CC3)CC2)c1)N[C@@H](CO)[C@@H](O)[C@H](O)[C@H](O)CO (stereo partly drawn) < 100 nM

Name the recorded EC50 of the molecule listed here: O=C(O)CN(C[C@H](O)[C@@H](O)[C@H](O)[C@H](O)CO)C(=O)CCCCc1cc(Cl)c(COC2(c3cnccc3-c3ccccc3OC3CC3)CC2)cc1Cl < 100 nM

Specify reported EC50 for the molecule shown: CCN(CCOCCNC(=O)NC[C@H](O)[C@@H](O)[C@H](O)[C@H](O)CO)S(=O)(=O)c1ccc(Cl)c(COC2(c3cnccc3-c3ccccc3OC3CC3)CC2)c1 < 100 nM

====

Biological target: human TGR5 (Homo sapiens)
Construct: expressed in transfected cells; host or cells: HEK293
Experiment: Cell-based TGR5 assay (cAMP generation, HTRF)
Settings: HEK293 cells stably transfected with human TGR5; cAMP by HTRF; 30 minutes at 37° C.; read-out: pEC50 Human TGR5 (converted)
recordedEndpoint: EC50

CSc1ccccc1-c1ccncc1C1(NCc2cc(Cl)ccc2Cl)CC1 [Compound I-7] = 126 to 1000 nM
O=C(CCCSc1ccc(Cl)c(COC2(c3cnccc3-c3ccccc3OC3CC3)CC2)c1)N(CCOCCO)C[C@H](O)[C@@H](O)[C@H](O)[C@H](O)CO [Compound I-683] = 126 to 1000 nM

Now turn to the next compound.
Read the entry CC(CCCC(=O)N(C)C[C@H](O)[C@@H](O)[C@H](O)[C@H](O)CO)c1cc(Cl)c(CNC2(c3cnccc3-c3ccccc3OC3CC3)CC2)cc1Cl (stereo partly drawn) [Compound I-379] and write its reported EC50. 126 to 1000 nM

====

Consider the following compounds and their measured EC50 readings.
Target: human TGR5 (Homo sapiens)
Construct: expressed in transfected cells; host or cells: HEK293
Sequence (Q8TDU6 1-330): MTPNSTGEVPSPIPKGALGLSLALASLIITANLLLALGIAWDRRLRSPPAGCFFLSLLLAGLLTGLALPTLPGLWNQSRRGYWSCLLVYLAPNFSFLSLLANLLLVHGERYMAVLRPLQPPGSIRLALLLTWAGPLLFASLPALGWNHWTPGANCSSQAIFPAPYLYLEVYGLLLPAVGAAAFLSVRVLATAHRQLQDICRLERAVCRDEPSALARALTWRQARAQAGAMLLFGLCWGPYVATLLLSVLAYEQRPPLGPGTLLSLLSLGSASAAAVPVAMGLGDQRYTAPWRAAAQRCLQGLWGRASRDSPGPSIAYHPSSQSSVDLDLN
Assay: Cell-based TGR5 assay (cAMP generation, HTRF)
Conditions: HEK293 cells stably transfected with human TGR5; cAMP by HTRF; 30 minutes at 37° C.; read-out: pEC50 Human TGR5 (converted)

CN(CCCCCc1cc(Cl)c(COC2(c3cnccc3-c3ccccc3OC3CC3)CC2)cc1Cl)C(=O)[C@@H](O)[C@@H](O)[C@H](O)[C@@H](O)CO (stereo in doubt) [Compound I-228] = < 100 nM
O=C(NCCCCNC(=O)NCCOCCSc1ccc(Cl)c(COC2(c3cnccc3-c3ccccc3OC3CC3)CC2)c1)NCCOCCSc1ccc(Cl)c(COC2(c3cnccc3-c3ccccc3OC3CC3)CC2)c1 [Compound I-638] = 126 to 1000 nM
FC(F)(F)c1ccc(Cl)c(COC2(c3cnccc3-c3ccccc3OC3CC3)CC2)c1 [Compound I-52] = < 100 nM

Find the measured EC50 of O=C(NCCCCCS(=O)(=O)c1ccc(Cl)c(COC2(c3cnccc3-c3ccccc3OC3CC3)CC2)c1)[C@@H](O)[C@@H](O)[C@H](O)[C@@H](O)CO [Compound I-608] and report it. < 100 nM

Item CC(CCCN(CCCCNS(C)(=O)=O)C(=O)[C@@H](O)[C@@H](O)[C@H](O)[C@@H](O)CO)c1ccc(Cl)c(CNC2(c3cnccc3-c3ccccc3OC3CC3)CC2)c1 (some centres unmarked) [Compound I-297] : provide EC50 < 100 nM
